This collection of values is drawn from patent US20180207276A1.

Molecular target: LGR7 (Homo sapiens)
Construct: expressed in transfected cells; host or cells: HEK293T cells stably expressing recombinant LGR7, transduced with CRE-Luc lentivirus
Sequence (Q9HBX9 1-757): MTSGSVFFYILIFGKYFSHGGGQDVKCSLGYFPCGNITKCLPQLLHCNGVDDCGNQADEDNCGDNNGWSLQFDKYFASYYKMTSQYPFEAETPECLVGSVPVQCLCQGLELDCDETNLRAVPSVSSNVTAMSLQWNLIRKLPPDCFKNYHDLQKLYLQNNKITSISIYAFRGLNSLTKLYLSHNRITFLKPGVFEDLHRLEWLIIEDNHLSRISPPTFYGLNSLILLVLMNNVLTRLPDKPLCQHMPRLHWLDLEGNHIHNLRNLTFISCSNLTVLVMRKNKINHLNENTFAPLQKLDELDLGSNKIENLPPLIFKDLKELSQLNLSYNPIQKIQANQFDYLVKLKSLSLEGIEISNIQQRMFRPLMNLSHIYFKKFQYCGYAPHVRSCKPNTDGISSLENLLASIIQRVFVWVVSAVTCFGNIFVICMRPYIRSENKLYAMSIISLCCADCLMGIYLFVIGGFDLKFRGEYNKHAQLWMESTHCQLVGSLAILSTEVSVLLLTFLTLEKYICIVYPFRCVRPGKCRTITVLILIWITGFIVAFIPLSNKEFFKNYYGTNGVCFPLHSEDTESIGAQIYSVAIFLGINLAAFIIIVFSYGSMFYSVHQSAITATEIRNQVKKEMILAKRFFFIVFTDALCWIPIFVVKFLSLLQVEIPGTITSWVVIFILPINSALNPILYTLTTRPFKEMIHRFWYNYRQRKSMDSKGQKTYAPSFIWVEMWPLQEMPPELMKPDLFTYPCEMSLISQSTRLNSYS
Experiment: LGR7 CRE-Luc reporter gene assay (bioactivity of relaxin peptides)
Type: cell-based
Conditions: HEK293T cells expressing LGR7 and CRE-Luc; fold drop relative to relaxin
Positions of bridges follow the written chain, without caps; N, C: chain ends. Non-standard residues stand in square brackets, D forms with d. Chains are numbered I, II in the order given. No end group written: not given here. *: point of attachment. X1 = O=C(O)CCCCCCCCCCCCCCCCC(=O)N[C@@H](CCCCNC(=O)CCOCCOCCNC(=O)CCOCCOCCNC(=O)C*)C(=O)O; X2 = O=C(O)CCCCCCCCCCCCCCCCC(=O)N[C@@H](CCCCn1cc(COCCOCCOCCOCCOCCNC(=O)C*)nn1)C(=O)O; pGlu = O=C1CC[C@@H](C(=O)O)N1
attribute measured: Activity, fold drop compared to relaxin
# output: bare number, no unit

Input line: Which value of Activity, fold drop compared to relaxin has been reported for I: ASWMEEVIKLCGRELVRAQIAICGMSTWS / II: QC(X2)YSALANKCCHVGCTKRSLARFC (disulfide I:11-II:11, I:23-II:24, II:10-II:15) [compound 3] in the records?
Output line: 12

Input line: Which value of Activity, fold drop compared to relaxin has been reported for I: H-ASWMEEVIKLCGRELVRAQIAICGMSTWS / II: H-QC(X1)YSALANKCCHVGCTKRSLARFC (disulfide I:11-II:11, I:23-II:24, II:10-II:15) [compound 1] in the records?
Output line: 12

Input line: Which value of Activity, fold drop compared to relaxin has been reported for I: H-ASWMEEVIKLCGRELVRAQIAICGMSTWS / II: [pGlu]C(X1)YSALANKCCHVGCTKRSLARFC (disulfide I:11-II:11, I:23-II:24, II:10-II:15) [compound 5] in the records?
Output line: 12
